# credit: ChEMBL document CHEMBL4813951

- Test System: Histamine H2 receptor (Cavia porcellus, UniProt P47747)
- Sequence (P47747 whole entry): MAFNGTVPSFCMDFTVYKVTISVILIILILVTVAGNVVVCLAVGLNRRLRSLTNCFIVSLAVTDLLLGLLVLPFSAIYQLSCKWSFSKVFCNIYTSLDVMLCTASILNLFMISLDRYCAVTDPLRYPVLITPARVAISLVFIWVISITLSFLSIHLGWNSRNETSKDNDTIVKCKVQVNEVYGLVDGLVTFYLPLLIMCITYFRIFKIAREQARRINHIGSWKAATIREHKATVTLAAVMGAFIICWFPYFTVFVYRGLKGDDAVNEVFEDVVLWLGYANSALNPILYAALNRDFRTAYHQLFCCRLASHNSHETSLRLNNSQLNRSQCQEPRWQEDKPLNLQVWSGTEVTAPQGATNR
- Measurement Notes: Agonist activity at guinea pig right atrium histamine H2 receptor assessed as increase in heart rate incubated for 30 mins in presence of cimetidine
Metric: log10(EC50) (log10 of the value in nM)

Compound: Cc1nc(N)sc1CCCN/C(N)=N/C(=O)NC(C)c1cccc(F)c1 (stereo unspecified)
log10(EC50): 1.42
//
Compound: Cc1nc(N)sc1CCCN/C(N)=N/C(=O)NC(c1ccccc1)C(C)C (stereo unspecified)
log10(EC50): 1.54
//
Compound: Cc1nc(N)sc1CCCN/C(N)=N/C(=O)NC(C)c1ccccc1F (stereo unspecified)
log10(EC50): 1.09
//
Compound: Cc1nc(N)sc1CCCN/C(N)=N/C(=O)N[C@H](C)c1ccccc1
log10(EC50): 0.88
//
Compound: CCC(NC(=O)/N=C(\N)NCCCc1sc(N)nc1C)c1ccccc1 (stereo unspecified)
log10(EC50): 1.03
//
Compound: Cc1nc(N)sc1CCCN/C(N)=N/C(=O)NC(c1ccccc1)c1ccccc1
log10(EC50): 1.60
//
Compound: COc1ccc(C(C)NC(=O)/N=C(\N)NCCCc2sc(N)nc2C)cc1 (stereo unspecified)
log10(EC50): 1.58
//
Compound: Cc1nc(N)sc1CCCN/C(N)=N/C(=O)NC(C)c1ccc(F)cc1 (stereo unspecified)
log10(EC50): 1.37
//
Compound: Cc1nc(N)sc1CCCN/C(N)=N/C(=O)NC(C)c1ccc(OC(F)(F)F)cc1 (stereo unspecified)
log10(EC50): 2.86
//
Compound: Cc1ccc(C(C)NC(=O)/N=C(\N)NCCCc2sc(N)nc2C)cc1 (stereo unspecified)
log10(EC50): 1.35
//
Compound: CCCCCNC(=O)/N=C(\N)NCCCc1sc(N)nc1C
log10(EC50): 0.76

----------
pKi: −log10 of the molar value.
Below are compounds with their pKi as measured on Histamine H3 receptor (Homo sapiens, UniProt Q9Y5N1).
Sequence (Q9Y5N1 whole entry): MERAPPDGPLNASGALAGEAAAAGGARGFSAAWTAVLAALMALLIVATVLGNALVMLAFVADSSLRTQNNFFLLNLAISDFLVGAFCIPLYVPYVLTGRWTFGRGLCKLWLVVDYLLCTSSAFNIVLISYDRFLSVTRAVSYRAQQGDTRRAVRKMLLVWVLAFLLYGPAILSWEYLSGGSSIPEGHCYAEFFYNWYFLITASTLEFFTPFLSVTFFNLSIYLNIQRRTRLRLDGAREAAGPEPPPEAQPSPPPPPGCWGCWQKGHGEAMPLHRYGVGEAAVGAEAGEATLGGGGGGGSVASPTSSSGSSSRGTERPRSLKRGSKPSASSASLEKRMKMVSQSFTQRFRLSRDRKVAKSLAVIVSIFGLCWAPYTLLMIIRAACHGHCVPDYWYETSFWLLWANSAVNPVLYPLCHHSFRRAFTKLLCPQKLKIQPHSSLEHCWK

Compound: Cc1nc(N)sc1CCCN/C(N)=N/C(=O)NC(c1ccccc1)C(C)C (stereo not drawn)
pKi: 4.72
//
Compound: CCC(NC(=O)/N=C(\N)NCCCc1sc(N)nc1C)c1ccccc1 (stereo not drawn)
pKi: 4.66
//
Compound: Cc1nc(N)sc1CCCN/C(N)=N/C(=O)NC(C)c1ccc(Cl)cc1 (stereo not drawn)
pKi: 4.75
//
Compound: CCC(CNC(=O)/N=C(\N)NCCCc1sc(N)nc1C)c1ccccc1 (stereo not drawn)
pKi: 4.78
//
Compound: CCCCCCNC(=O)/N=C(\N)Nc1cccc(-c2csc(N)n2)c1
pKi: 4.96
//
Compound: Cc1nc(N)sc1CCCN/C(N)=N/C(=O)NC(c1ccccc1)c1ccccc1
pKi: 5.04
//
Compound: Cc1nc(N)sc1CCCN/C(N)=N/C(=O)NCC(C)C1CCCCC1 (stereo not drawn)
pKi: 5.00
//
Compound: Cc1nc(N)sc1CCCN/C(N)=N/C(=O)N[C@H](C)c1ccccc1
pKi: 4.36
//
Compound: Cc1ccc(C(C)NC(=O)/N=C(\N)NCCCc2sc(N)nc2C)cc1 (stereo not drawn)
pKi: 4.58
//
Compound: Cc1nc(N)sc1CCCN/C(N)=N/C(=O)NCC(C)CC1CCCCC1 (stereo not drawn)
pKi: 5.13
//
Compound: Cc1nc(N)sc1CCCN/C(N)=N/C(=O)NC(C)c1ccccc1F (stereo not drawn)
pKi: 4.51
//
Compound: Cc1nc(N)sc1CCCN/C(N)=N/C(=O)NC(C)c1ccc(F)cc1 (stereo not drawn)
pKi: 4.59
//
Compound: Cc1nc(N)sc1CCCN/C(N)=N/C(=O)N[C@@H](C)c1ccccc1
pKi: 4.48
